Reference for the values: BindingDB's records for doi:10.1016/j.bioorg.2016.07.008

Consider the following molecules and their measured pIC50 readings.
Biological target: Beta-glucuronidase (Homo sapiens, UniProt P08236)
Sequence (P08236 whole entry): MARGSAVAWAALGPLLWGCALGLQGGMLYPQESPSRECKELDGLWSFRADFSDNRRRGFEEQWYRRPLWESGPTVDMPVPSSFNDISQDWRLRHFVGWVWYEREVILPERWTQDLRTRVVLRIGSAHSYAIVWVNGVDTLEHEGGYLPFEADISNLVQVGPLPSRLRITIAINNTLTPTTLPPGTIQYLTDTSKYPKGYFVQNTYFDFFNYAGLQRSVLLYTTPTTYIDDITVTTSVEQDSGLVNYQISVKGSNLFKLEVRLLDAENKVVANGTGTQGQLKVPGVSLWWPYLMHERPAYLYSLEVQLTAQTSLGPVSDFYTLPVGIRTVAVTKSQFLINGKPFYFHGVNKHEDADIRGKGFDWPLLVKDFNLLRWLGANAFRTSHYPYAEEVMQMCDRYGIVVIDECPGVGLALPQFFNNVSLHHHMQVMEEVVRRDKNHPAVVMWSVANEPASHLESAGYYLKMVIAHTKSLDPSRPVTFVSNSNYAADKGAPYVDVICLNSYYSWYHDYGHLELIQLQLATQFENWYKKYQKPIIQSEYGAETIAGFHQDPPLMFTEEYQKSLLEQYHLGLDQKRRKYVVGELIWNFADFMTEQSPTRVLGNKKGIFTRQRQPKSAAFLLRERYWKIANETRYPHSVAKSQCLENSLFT
Experiment: β-Glucuronidase Bioassay
pIC50 is defined as minus the log10 of a concentration measured in mol/L.

Line Notation: COc1ccc(NC(=S)NNC(=O)c2ccc(C(c3c[nH]c4ccccc34)c3c[nH]c4ccccc34)cc2)cc1
pIC50: 4.94

Proceed to the following item.
Sample O=C(NNC(=S)Nc1ccc([N+](=O)[O-])cc1)c1ccc(C(c2c[nH]c3ccccc23)c2c[nH]c3ccccc23)cc1 — what was its pIC50?
4.92
